- experimentDescription: Viability of SW13 cells by nuclei count in the HAZV antiviral assay
- Type: cell-based
- testConditions: human, SW13 cells inoculated with HAZV; SW13 cells, nuclei count relative to DMSO, 10 μM, 24 h
# viability at 24 h, 10 µM annotations
readoutName: viability at 24 h, 10 µM (%)

compoundStructure: O=C(Nc1ccc(I)cc1)N1CCC(n2c(=O)[nH]c3cc(Cl)ccc32)CC1
readoutName: viability at 24 h, 10 µM
unitOfMeasure: %
numericResult: 77
--
compoundStructure: O=C(Nc1ccc(I)cc1)N1CCC(c2c[nH]c3ccccc23)CC1
readoutName: viability at 24 h, 10 µM
unitOfMeasure: %
numericResult: 82
